# Tested on: RXF 393 renal
# PROTOCOL_NOTES: NCI tumour cell line growth inhibition, 48 h; in the data active = GI50 below about 0.43 µM; inactive = the rest
Allowed answers: active, inactive

Q: # lookup: test call for "CN(C)CCCNC1=C(Cl)C(=O)c2ccccc2C1=O"
Ans: inactive

Q: How was C=C(CNCCO)[C@@H]1CC[C@]2(CO)CC[C@]3(C)[C@H](CC[C@@H]4[C@@]5(C)CCC(N)C(C)(C)[C@@H]5CC[C@]43C)[C@@H]12 (stereo partly specified) classified in this test?
Ans: inactive

Q: Would you mind telling me which call this test gave CC1=C(C(=O)Nc2ccc(F)c(Cl)c2)C(c2ccc(Cl)cc2)NC(=O)N1 (stereo unspecified) ?
Ans: inactive

Q: Which outcome was entered for the compound "Cc1cc(=O)n2[nH]c(-c3ccc(C(C)(C)C)cc3)cc2n1" in this test?
Ans: inactive

Q: Which outcome did this test record for the compound "COC(=O)c1ccc2[nH]c(O)c(C(=Nc3ccc(N(C)C(=O)CN4CCN(C)CC4)cc3)c3ccc(C)cc3)c2c1" ?
Ans: active

Q: Outcome? "COc1cc(/C=C/c2cc(/C=C/c3ccc(O)c(OC)c3)n(C(=O)Nc3ccc(F)cc3)n2)ccc1O"
Ans: active
